Values were extracted from paper PMC5061434.

# System: Ribosomal S6 kinase 2 (RSK2) (Mus musculus)
# Sequence (P18654 whole entry): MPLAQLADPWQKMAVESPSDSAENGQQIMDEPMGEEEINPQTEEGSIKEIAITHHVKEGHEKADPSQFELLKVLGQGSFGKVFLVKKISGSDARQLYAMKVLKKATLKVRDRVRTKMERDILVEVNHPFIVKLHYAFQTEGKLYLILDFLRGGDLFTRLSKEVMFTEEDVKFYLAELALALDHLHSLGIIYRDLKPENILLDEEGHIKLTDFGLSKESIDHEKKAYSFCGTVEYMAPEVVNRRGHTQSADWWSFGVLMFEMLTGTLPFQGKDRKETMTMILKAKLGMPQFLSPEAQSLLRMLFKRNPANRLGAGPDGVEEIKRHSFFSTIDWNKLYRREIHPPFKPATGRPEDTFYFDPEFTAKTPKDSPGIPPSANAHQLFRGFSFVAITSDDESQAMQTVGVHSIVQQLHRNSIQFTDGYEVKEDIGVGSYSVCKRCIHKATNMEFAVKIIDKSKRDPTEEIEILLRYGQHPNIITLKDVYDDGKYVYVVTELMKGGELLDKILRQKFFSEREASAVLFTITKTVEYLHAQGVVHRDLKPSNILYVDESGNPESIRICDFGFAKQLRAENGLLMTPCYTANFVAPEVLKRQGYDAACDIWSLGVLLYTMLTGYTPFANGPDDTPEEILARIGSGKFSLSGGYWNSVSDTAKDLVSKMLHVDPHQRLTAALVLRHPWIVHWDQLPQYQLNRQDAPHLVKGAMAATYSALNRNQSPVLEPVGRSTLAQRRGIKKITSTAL
Test Readout: IC50

IC50 recorded for this compound, CC(=O)O[C@@H]1[C@@H](OC(C)=O)[C@@H](O)[C@H](Oc2c(-c3ccc(O)cc3)oc3cc(O)cc(O)c3c2=O)O[C@H]1C [SL0101] , is ~8 µM
